These measurements were taken from PubChem BioAssay (NCI).

Each record here notes measured TGI.
# Test system: MALME-3M melanoma
# Test Description: NCI tumour cell line growth inhibition, 48 h
Recorded Metric: TGI (µM)

Compound | Recorded Metric | Bound Type | Measured Number
COc1ccc(CNCCCN2C(=O)c3ccc4c5c(ccc(c35)C2=O)C(=O)N(CCCNCCCCNCCCN)C4=O)c(OC)c1OC | TGI | = | 2.76
Cc1ccccc1N=Nc1ccc(N=Nc2c(O)ccc3cc(S(=O)(=O)O)cc(S(=O)(=O)O)c23)c(C)c1 | TGI | > | 100
C[C@]1(O)CC(=O)[C@]2(O)C3=C(C=C[C@]2(O)C1)C(=O)c1c(O)cccc1C3=O | TGI | = | 1.84
O=c1oc2ccccc2c(O)c1C(c1ccc([N+](=O)[O-])cc1)c1c(O)c2ccccc2oc1=O | TGI | > | 100
S=C1SC2(CCCCCC2)NC2=C1CCCCC2 | TGI | > | 100
COc1ccc(C(=O)N=C2N(c3ccccc3)C(=Nc3ccccc3)C(=Nc3ccccc3)N2c2ccccc2)cc1 | TGI | > | 58.3
CC(C)(C)c1ccc(NC(=O)c2cc(=O)c3ccccc3[nH]2)c(C(C)(C)C)c1O | TGI | = | 26.3
CCN(CC)CC1CCCCN1CC(=O)N1c2ccc(Br)cc2C(=O)Nc2cccnc21 (stereo unspecified) | TGI | > | 100
S=C(S)NCCCn1ccnc1 | TGI | > | 100
C#CCCCCC#CC1CCCC1C1=CC(=O)c2ccccc21 (stereo unspecified) | TGI | = | 20.1
CC[O+]=c1cccc2ssnc1-2 | TGI | > | 100
Nc1nonc1-c1noc(-c2nonc2N)[n+]1[O-] | TGI | = | 42.5
CCCCC/C=C1\CCC(CN2CCOCC2)C1=O (stereo unspecified) | TGI | = | 18.9
Cc1c(Cl)c(S(N)(=O)=O)cc(S(N)(=O)=O)c1NC(=O)c1ccc(Cl)cc1 | TGI | > | 100
Cc1ccc(-c2n[nH]c(CC#N)n2)cc1 | TGI | > | 100
O=c1[nH]nc2c3n[nH]c(=O)n3c3ccccc3n12 | TGI | > | 100
O=C1c2ccccc2C(=O)N1C/C=N/NS(=O)(=O)c1ccc(Cl)cc1 | TGI | > | 100
COc1cc(C(C)c2cc3c(cc2OCCOCCOc2cc4c(cc2C(C)c2cc(OC)c(OC)c(OC)c2)OCO4)OCO3)cc(OC)c1OC (stereo unspecified) | TGI | > | 100
O=C(/C=C/c1ccccc1)c1ccc(O)c(CN2CCN(c3cc4c(cc3F)c(=O)c(C(=O)O)cn4C3CC3)CC2)c1 | TGI | = | 15.6
COc1ccc(C(F)(F)F)cc1NC(=O)O/N=C(/Cl)C(C)C | TGI | = | 24.7
CCCN(CCC)C(=O)Cc1c2n(c3ccccc13)CCCc1ccccc1-2 | TGI | = | 26.8

====

# Tested on: SW-620 colon
# Test Description: NCI tumour cell line growth inhibition, 48 h

Compound | GI50
O=C(/C=C/c1ccccc1)c1ccc(O)c(CN2CCN(c3cc4c(cc3F)c(=O)c(C(=O)O)cn4C3CC3)CC2)c1 | 2.28 µM
CC(=O)[CH-]C(=O)c1ccccc1.CC(=O)[CH-]C(=O)c1ccccc1.CC(C)CCCC(C)[C@H]1CCC2[C@@H]3CCC4C[C@@H]([O-])CC[C@]4(C)C3CC[C@@]21C.CC(C)CCCC(C)[C@H]1CCC2[C@@H]3CCC4C[C@@H]([O-])CC[C@]4(C)C3CC[C@@]21C.Cl.[Ti+4] (stereo not given in full) | > 25 µM
c1ccc(CN2CCC3(CC2)ONC2=NCCN23)cc1 | 75 µM
N#C/C(=C/c1cccs1)c1cccs1 | > 100 µM
CCCN(CCC)c1ccc(C=O)c(OC)c1 | 22.9 µM

====

# Test system: DU-145 prostate
# Test Description: NCI tumour cell line growth inhibition, 48 h; in the data active = GI50 below about 0.43 µM; inactive = the rest
Classes used: active, inactive

Compound | Class
Cc1cc2cc(Oc3ccnc(Nc4cccc(CS(=O)(=O)NCCN(C)C)c4)n3)ccc2[nH]1 | inactive
CNC1=C(Br)C(=O)C2=C(C1=O)C1C3=C(C(=O)C=CC3=O)C2c2ccccc21 (stereo not given) | inactive
O=C1c2ccccc2C(=O)c2c1c(NCCNCCO)c1cc[nH]c1c2NCCNCCO | inactive
COc1cccc2c1C(=O)c1c(O)c3c(c(O)c1C2=O)C[C@@](O)(C(=O)COC(=O)c1cccnc1)C[C@@H]3OC1CC(N)C(O)C(C)O1 (stereo not given in full) | active
COc1cc(C)c(N(C)C(=O)CN(C)C)cc1Nc1nc(Nc2cccc(F)c2C(N)=O)c2cc[nH]c2n1 | inactive
c1ccc(CN2CCC3(CC2)ONC2=NCCN23)cc1 | inactive
C=C(C)[C@@H]1CC[C@]2(C)[C@H](CC=C3[C@@H]4CC(C)(C)CC[C@]4(C(=O)OC)CC[C@]32C)[C@@]1(C)CC/C(N)=N/O | inactive
COc1cc2c(C#N)n3c(c2cc1OC)C(=O)C(c1ccccc1)Oc1ccccc1-3 (stereo not given) | inactive
O=c1cc(-c2ccccc2)oc2cc(OCc3cn(Cc4ccc(F)cc4)nn3)cc(O)c12 | inactive
COc1ccc(OC)c(-c2cn3nc(-c4c[nH]c5ccc(Br)cc45)sc3n2)c1 | inactive
O=C(Oc1ccccc1Cl)c1cccnc1Nc1ccnc(C(F)(F)F)c1 | inactive
COc1ncnc2c1ncn2C/C(Br)=C(\Br)CCl | inactive
COc1cc2c3c(n(CCCn4cccn4)c(=O)c2cc1OC)-c1cc2c(cc1C3=O)OCO2 | inactive
Cc1cc(C)c(S(=O)(=O)Oc2ccccc2[N+](=O)[O-])c(C)c1 | inactive
CC(C)(C)OC(=O)N(CCCn1c2c(c3ccccc3c1=O)C(=O)c1ccccc1-2)CCN(CCCn1c2c(c3ccccc3c1=O)C(=O)c1ccccc1-2)C(=O)OC(C)(C)C | inactive

====

Each record here notes measured TGI.
# System: NCI-H23 lung
# Test Description: NCI tumour cell line growth inhibition, 48 h
Recorded Metric: TGI

Compound | Result
S=C(NNC1=NCCCCN1)Nc1ccccc1 | > 100 µM
C/C(=N/NC(=S)Nc1cccc(Cl)c1)c1cccc(/C(C)=N\NC(=S)Nc2cccc(Cl)c2)n1 | > 38.5 µM
CN1NC(c2ccccc2)=C(C#N)C(=O)CC1c1ccccc1Cl (stereo not drawn) | > 100 µM
CC(=O)C1CC2(c3ccccc3)C(=O)c3ccccc3N2O1 (stereo not drawn) | > 100 µM
O=C1CC(CC(O)C(O)CO)CC(=O)N1 (stereo not drawn) | > 100 µM
Fc1ccc(C(OCCN2CC3CC2CN3CCCc2ccccc2)c2ccc(F)cc2)cc1 (stereo not drawn) | 23.8 µM
CC(C)C(OC(=O)c1cc(NC(=S)c2ccccc2)ccc1Cl)C(C)C | 35.7 µM
COc1ccc(CCNC(=O)Cc2ccccc2CCO)cc1OC | > 100 µM
Cc1ccc(S(=O)(=O)NC(C)C(=O)O)cc1 (stereo not drawn) | > 100 µM
CCN(CC)CC1CCCCN1CC(=O)N1c2ccc(Br)cc2C(=O)Nc2cccnc21 (stereo not drawn) | > 100 µM
Cc1ccc2c(c1)C(=O)C1(C2)Cc2ccc(C)cc2C1=O | > 100 µM
Cc1ccc(-c2n[nH]c(=O)n2N)cc1 | > 100 µM
CCCCn1c(=O)c(/C=C/C(=O)/C=C/c2ccc(O)c(OC)c2)cc2ccc(Cl)cc21 | 4.98 µM
CCCN(CCC)C(=O)Cc1c2n(c3ccccc13)CCCc1ccccc1-2 | 25.7 µM
Cc1cc2cc(Oc3ccnc(Nc4cccc(CS(=O)(=O)NCCN(C)C)c4)n3)ccc2[nH]1 | 23.6 µM
COc1cccc(N2CCc3c(C)c(C#N)c4nc5ccccc5n4c32)c1 | > 100 µM
COC(=O)/C=C\C1C(C(=O)OC)C2(C(=O)OC)CCC1(C(=O)OC)N2 (stereo not drawn) | 36.4 µM
COc1cc(CSc2ccc(O)cc2)cc(O)c1O | > 100 µM
CC(=O)C1C(=O)C(=O)N(c2ccc(Cl)cc2C)C1=O (stereo not drawn) | > 100 µM
c1ccc(N=C2SC(c3ccccc3)CN2C23CC4CC(CC(C4)C2)C3)cc1 (stereo not drawn) | > 100 µM
O=C(CN1CCOCC1)NC1=Nc2ncccc2C(=O)NN1 | > 10 µM
O=C(O/N=C1/CCC/C1=C\c1ccccc1)c1ccc(Cl)cc1 | > 95.3 µM
O=c1c2ccccc2c(C=NCCNCCO)c2oc3ccccc3n12 | 33.6 µM

====

Each record here notes measured TGI.
# Tested on: EKVX NSCLC
# Test Description: NCI tumour cell line growth inhibition, 48 h

Compound | Unit Text | Bound Type | TGI
CCOc1ccccc1N=NC1C(=O)N(C(=O)CC(=O)Nc2ccccc2Cl)N=C1C (stereo unspecified) | µM | = | 80.9
CC(C)c1cccc2sc(NC(=O)C(=O)CC(=O)c3ccc(F)cc3)nc12 | µM | > | 100
O=C(/C=C/c1ccccc1)c1ccc(O)c(CN2CCN(c3cc4c(cc3F)c(=O)c(C(=O)O)cn4C3CC3)CC2)c1 | µM | > | 100
CCCCCn1ncc(-c2c(O)c(O)cc3c(O)c(-c4c(C)cc5c(-c6cnn(CCCCC)n6)c(O)c(O)cc5c4O)c(C)cc23)n1 | µM | = | 4.61
CC(=O)O[C@H]1CC[C@]2(C)[C@H]3C(=O)C=C4[C@@H]5C[C@](C)(C(=O)N6CCCNCC6)CC[C@]5(C)CC[C@@]4(C)[C@]3(C)CC[C@H]2C1(C)C | µM | = | 3.15
CCC(=O)NCC1(c2c[nH]c3ccccc23)SCCS1 | µM | > | 100
